Test system: THRa:RXRa (NR concentration 90 nM, RXRa partner concentration 90 nM)
Assay: PBM binding z-score (relative to random genomic background probes); higher = stronger binding; sequences stand for … in GC…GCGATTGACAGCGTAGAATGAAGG
# key: entry, value: PBM binding z-score
readout_kind: PBM binding z-score

• TAGCCTAGGTCATGGGCCAGCATACCACGCGAAC = 3.04
• GATACAGGGTCAGCTAGAGGCCAGGGTATGGAAA = 3.08
• TAGCCTAGGTCATTGGGGCAGTATAGTACGCATC = 2.96
• CCTCGGAGGACAGAAGGTGAGAGCTGTCCGCTTT = 0.747
• AGAATGAGGTTAAGAGCAGGGAAACAGAATACAT = 2.19
• AGAACGAGGGCAAAGAGTTGATAGCACGGGTGGC = 0.917
• CCTACTGGGCCATCAGGTCATTGGTATCAACGTT = 3.33
• CGAATTAGGTCATTGACAGGACAGTGAATAGTAA = 3.33
• AATACAGGGTAATCGTAGGCCAGAGTACGCACAG = 1.34
• TGAATGAGGTTAAAGATCACGGAACGTGGCGTCG = 2.72

====

Tested on: PPARg DBDmut IVT, anti-PPARg (DBD mutation: PPARg1 K132A/R137A, NR concentration 270 nM)
Test: PBM binding z-score (relative to random genomic background probes); higher = stronger binding; sequences stand for … in GC…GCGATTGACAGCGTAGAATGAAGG
// reported PBM binding z-score for each item listed
readout_kind: PBM binding z-score

* ACTCTTAGTTGAGACGAGGGCAACCGATAGGTTG | 0.118
* AGTAGTTGGTCAGCTGAGGTCACACACAATTCGG | 0.308
* GCGACTGGGGCAAAGCATGTTACCATAAGGTTGG | -0.674

====

Measured PBM binding z-score by item
Test system: LXRb:RXRa (NR concentration 270 nM, RXRa partner concentration 90 nM)
Assay: PBM binding z-score (relative to random genomic background probes); higher = stronger binding; sequences stand for … in GC…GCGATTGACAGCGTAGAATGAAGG
readout_kind: PBM binding z-score

- GGAAGGAGGGCATTCGAGTTGATAGCATGGCGAT: 0.866
- ACTATTAGTTGAGACGATGGCAACCGATAGGTTG: -0.527
- CGAACTAGGTCAGTACAGGACAGTGAAGGATGAT: 0.493
- ATCTCTTGGTAAAGTTCAGTGAAAGATCGATAGA: 1.6
- AGTCAAAGTTCGGGACGAGGTAACGTAAAGCACG: 0.242
- TCTCGGAGGACACGACGGTCAGAGCTTTCCAGAG: -0.277
- CGTACAAGGTCAATGCTAGGTCAGTGAAAGCATT: 4.55
- GCTGCTAGGTCAACCGATGGTCAGCTAAAGCTCG: 1.67
- ATAATGAGGTTATACGTAGATCAGGGAAGAAAGT: 1.89
- GCTATTAGTTGAAGGGGCAACCGAATGATTCTCG: 0.151

====

Test system: VDR:RXRa (NR concentration 270 nM, RXRa partner concentration 90 nM)
Assay: PBM binding z-score (relative to random genomic background probes); higher = stronger binding; sequences stand for … in GC…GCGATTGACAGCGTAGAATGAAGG
Would you mind labelling by PBM binding z-score? At or over 1 is met, under is not met.

* CCGACTGGGGCATAAGGTTACCGTAAGCCAGCCC | not met
* TCTGCTAGGTCAGTTCGTCAGCTAACGAGCTGCC | not met
* CCAGACTGGTGAGAAGGTAACTCAGCCTCGATTA | not met
* CTGCCTAGGTCAGGGCCAGTATAGGAGGAACGTT | not met
* ACTAGCAGGCCAAGTTTGGGTCACGCAAACAAAG | met
* CCGACTGGGGCATAAGGTTTCCATAAGCCAGCCC | not met
* ATCGAAAGGTCGAAGTGAGTATAGAGAAAGGGAA | met
* TCTTGTAGATCAATAGAGGTTAAGAACGTGCGCT | met
* TCTTTTAGATCAATAGAGGTTAAGAAAGTGCGCT | met
* CCGACTGGGGAAAGGTTACCATAACGCACAGCCA | not met
* GCTAGCAGGCCATTTGGGTCGCTCAATGACGGGC | not met
* CGTCCAAGGTCAAGGTCAGTGTAAGAGACTCGAA | met
* TTCCCAAGGTGAAGGTCGTTGATCCCTCTGTAGA | met
* TCTAGTTGGTCACAGGTCACACACTCGAAATGCG | met
